System: DLD-1 colon
Assay: NCI tumour cell line growth inhibition, 48 h
measurement.type: TGI (µM)
Respond numerically; units are µM and should not be typed.

For orientation, consider the following solved cases.
| molecule.smiles | TGI, µM |
| --- | --- |
| CN(C)CCSC(=Nc1ccccc1)N1CCCCC1 | 31.5 |
| O=[Se](=O)c1ccccc1.O=[Se](=O)c1ccccc1.[Cu] | 40.5 |

Continue with the compound presented below.
Data request: Can you look up the measured TGI of C/C(=N\N=C(/[Se])N1CC2CCC(CC2)C1)c1ccccn1 for me?
Data returned: 1.96

----------
Each entry below carries its recorded GI50.
Tested on: UO-31 renal
Assay: NCI tumour cell line growth inhibition, 48 h

Known results for molecules:
| molecule | measurement.type | measured.value |
| --- | --- | --- |
| O=c1cc(-c2ccccc2)[nH]n1-c1nc2ccccc2[nH]1 | GI50 | 5.68 µM |
| c1ccc(-n2nnnc2-c2cccc3ccccc23)cc1 | GI50 | 2.16 µM |
| O=C(O)c1ccc(N/C=C2\C(=O)c3ccccc3OC2O)cc1O (stereo unspecified) | GI50 | 6.68 µg/mL |
| COc1ccc2c(c1)C(=O)/C(=C/c1ncc([N+](=O)[O-])n1C)O2 | GI50 | 0.494 µM |
| O=[Se](=O)c1ccccc1.O=[Se](=O)c1ccccc1.[Cu] | GI50 | 18 µM |

Data request: Entry under review: COc1ccc(Cl)cc1NC(=O)C(Br)C(Br)C(=O)O (stereo unspecified) . Reported GI50?
Data returned: 19.2 µM

Data request: One more molecule: S=C1Nc2ccc(Cl)cc2C2(c3ccccc3)N3CCN=C3NN12 (stereo unspecified)
Data returned: 37.5 µM

Data request: # iterate: N#C[S-].[Nd+3].c1ccc(-c2ccccn2)nc1.c1ccc(-c2ccccn2)nc1.c1ccc(-c2ccccn2)nc1
Data returned: 2.19 µM

Data request: Same read-out for O=Nc1ccc2ccccc2c1O ?
Data returned: 4.99 µM

Data request: Then what about the molecule CCCCCCCCCCCCSC(=N)N ?
Data returned: 5.71 µM

Data request: Now the same for C=C1C(=O)O[C@H]2[C@H]1CC/C(COC(=O)CSCC(=O)OC/C1=C/CC[C@@]3(C)O[C@H]3[C@H]3OC(=O)C(=C)[C@@H]3CC1)=C\CC[C@@]1(C)O[C@@H]21
Data returned: 1.44 µM

Reference for the values: PubChem BioAssay (NCI)
